For each record, write down the corresponding AC50.
Target: UniProtKB P33261
Sequence (P33261 whole entry): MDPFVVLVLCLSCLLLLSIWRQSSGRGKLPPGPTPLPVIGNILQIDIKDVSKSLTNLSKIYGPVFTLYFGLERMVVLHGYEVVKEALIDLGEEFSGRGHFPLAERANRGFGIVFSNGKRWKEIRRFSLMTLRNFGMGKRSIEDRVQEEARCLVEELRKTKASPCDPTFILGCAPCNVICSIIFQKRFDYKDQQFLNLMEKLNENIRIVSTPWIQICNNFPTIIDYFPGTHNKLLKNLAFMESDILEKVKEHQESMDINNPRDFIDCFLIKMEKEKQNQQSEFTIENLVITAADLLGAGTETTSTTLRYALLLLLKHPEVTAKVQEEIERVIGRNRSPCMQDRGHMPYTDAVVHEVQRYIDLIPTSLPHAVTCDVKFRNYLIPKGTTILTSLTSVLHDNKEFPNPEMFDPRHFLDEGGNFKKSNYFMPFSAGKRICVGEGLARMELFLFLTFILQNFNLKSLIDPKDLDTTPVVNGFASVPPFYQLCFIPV
Assay: Cytochrome panel assay with activity outcomes. Panel member name: p450-cyp2c19 Compounds with AC50 equal or less than 10 uM are considered active
Format: functional
Settings: read-out: AC50

Please look up its AC50: COCCNC(=O)CSc1nc2cc(OC)c(OC)cc2c(=O)n1Cc1ccco1 20 µM (inconclusive)

Please look up its AC50: COc1ccccc1C1C(C(=O)c2ccccc2)=C(O)C(=O)N1CCO (stereo not given) 39.8 µM (inconclusive)

Please look up its AC50: CCOC(=O)c1sc2nc3c(cc2c1N)COC(C(C)C)C3 (stereo not given) 22.4 µM (inconclusive)

Please look up its AC50: C[C@H](Cc1ccc(O)c(O)c1)[C@@H](C)Cc1ccc(O)c(O)c1 15.8 µM (inconclusive)

Please look up its AC50: Cc1ccc(CS(=O)(=O)CCC(=O)NCCN2CCCC2)cc1 39.8 µM (inconclusive)

###

For each record, write down the corresponding AC50.

What value of AC50 on Cytochrome P450 2C9 (Homo sapiens, UniProt P11712) does CC(NC(=O)c1ccc(Cl)cc1)c1nnc(SCc2ccc([N+](=O)[O-])cc2)n1C (stereo not given) have? 28.2 µM (inconclusive)

What value of AC50 on Cytochrome P450 2C9 (Homo sapiens, UniProt P11712) does O=C(NC1CCCC1)c1cccnc1N1CCCCCC1 have? 35.5 µM (inconclusive)

What value of AC50 on Cytochrome P450 2C9 (Homo sapiens, UniProt P11712) does O=C(Nc1ccccc1)N1CCOCC1 have? 0.562 µM (inconclusive)

What value of AC50 on Cytochrome P450 2C9 (Homo sapiens, UniProt P11712) does Cn1c(=O)c(-c2cc(F)cc(F)c2)nc2cnc(Oc3ccccc3)nc21 have? 20 µM (inconclusive)

What value of AC50 on Cytochrome P450 2C9 (Homo sapiens, UniProt P11712) does CCc1nnc(NC(=O)CSc2nc(C3CCCCC3)nc3ccccc23)s1 have? 3.55 µM (inconclusive)

What value of AC50 on Cytochrome P450 2C9 (Homo sapiens, UniProt P11712) does COc1ccccc1CNc1ccnc(-c2ccoc2)n1 have? 1.26 µM (inconclusive)

What value of AC50 on Cytochrome P450 2C9 (Homo sapiens, UniProt P11712) does Cc1ccc(/C=C/C(=O)c2nc3ccccc3[nH]2)cc1 have? 7.94 µM (inconclusive)

What value of AC50 on Cytochrome P450 2C9 (Homo sapiens, UniProt P11712) does COc1ccc(N2C(=O)CCC(C(=O)Nc3ccccn3)C2c2ccc(OC)c(OC)c2)cc1 (stereo not given) have? 3.16 µM (inconclusive)

What value of AC50 on Cytochrome P450 2C9 (Homo sapiens, UniProt P11712) does Oc1nc(-c2ccccc2)cc(C(F)(F)F)n1 have? 6.31 µM (inconclusive)

What value of AC50 on Cytochrome P450 2C9 (Homo sapiens, UniProt P11712) does O=C(c1ccco1)N1CCC2(CC1)CN(c1ccccc1)C2 have? 25.1 µM (inconclusive)

What value of AC50 on Cytochrome P450 2C9 (Homo sapiens, UniProt P11712) does Cc1ccc(-n2c(=O)[nH]cc(C(=O)N3CCc4ccccc43)c2=O)cc1 have? 1 µM (inconclusive)

What value of AC50 on Cytochrome P450 2C9 (Homo sapiens, UniProt P11712) does O=c1c2c(-c3cccs3)csc2ncn1-c1ccc(Br)cc1 have? 3.98 µM (inconclusive)

What value of AC50 on Cytochrome P450 2C9 (Homo sapiens, UniProt P11712) does CCC(C)(NC(=O)c1ccccn1)C(=O)NC1CCCCC1 (stereo not given) have? 17.8 µM (inconclusive)

What value of AC50 on Cytochrome P450 2C9 (Homo sapiens, UniProt P11712) does COc1ccccc1C1C(C(=O)c2ccccc2)=C(O)C(=O)N1CCO (stereo not given) have? 39.8 µM (inconclusive)

What value of AC50 on Cytochrome P450 2C9 (Homo sapiens, UniProt P11712) does COc1ccc(-c2csc(NC(=O)Cn3nc(C)cc3C)n2)cc1 have? 0.794 µM (inconclusive)
